- Test system: malate dehydrogenase (MDH)
- measurementProtocol: Aggregation counter-screen, malate dehydrogenase inhibition
- Format: biochemical
- conditions: absence of detergent

# smiles, inhibition of MDH
records = [
    ("C=C(Cl)COC(=O)c1cnc2[nH]ccc2c1", "inhibited MDH"),
    ("CC(C)SCn1cnc2cnn(C)c2c1=O", "inhibited MDH"),
]

* * *

Read-out record for UniProt P0DTD1: IC50
Please reply with the bare figure in µM and do not write the unit itself.

**Query** IC50 lookup needed for `O=C(COC(=O)c1cc(-c2ccoc2)n[nH]1)Nc1ccc(Br)cc1` , thanks.
**Result** 6

**Query** IC50 lookup needed for C=CC(=O)NC[C@H](OC)C(=O)N1CCC(C2C(=O)Nc3cc(Cl)ccc32)CC1 (some centres unmarked) , thanks.
**Result** 7

Where these numbers come from: paper PMC10374283
